Origin of values: paper PMC10397247

Target: T1, P2-AA
T1 chain: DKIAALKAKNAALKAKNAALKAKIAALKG
Assay: two-hybrid library CCmax;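 note: natural log of median RNA to DNA barcode read ratio; higher means stronger binding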
result_type: interaction score

[in] Query: interaction score; subject: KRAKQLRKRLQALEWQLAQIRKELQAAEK [4H_APH3]
[out] -1.85

[in] Query: interaction score; subject: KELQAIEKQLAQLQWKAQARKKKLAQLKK [4H_APH]
[out] -1.82

[in] Query: interaction score; subject: DKIAALKAKNAALKAKNAALKAKIAALKG [P2-AA]
[out] -0.878

[in] Query: interaction score; subject: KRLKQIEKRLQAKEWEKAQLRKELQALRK [4H_APH4]
[out] -1.88
